# Test system: REH (B-Lymphoblastic Leukemia)
# ASSAY SUMMARY: combination Emax (second highest fraction inhibited in the dose matrix, 72 h); higher = more inhibition; extreme values may be limits of the assay
READOUT KIND: combination Emax
Give bare numbers.

A selection of reference data follows.
MOLECULE | TARGET OF ASSAY | combination Emax
CN(CCO)CC[C@H](CSc1ccccc1)Nc1ccc(S(=O)(=O)NC(=O)c2ccc(N3CCC([C@@H](O)c4ccccc4-c4ccc(Cl)cc4)CC3)cc2)cc1S(=O)(=O)C(F)(F)F [AZD4320] + C1CN(CCC1(C(=O)N[C@@H](CCO)C2=CC=C(C=C2)Cl)N)C3=NC=NC4=C3C=CN4 [Capivasertib] (first compound max 1 µM, 7x7, partner max 3 µM) | REH (B-Lymphoblastic Leukemia) | 1
O=C(c1cc(Cc2n[nH]c(=O)c3ccccc23)ccc1F)N1CCN(C(=O)C2CC2)CC1 [Olaparib] + Cc1c2c(nn1C)CSCc1cc(n(C)n1)CSc1cc(c3ccccc3c1)OCCCc1c(C(=O)O)n(C)c3c-2c(Cl)ccc13 [AZD5991] (first compound max 10 µM, 7x7, partner max 1 µM) | REH (B-Lymphoblastic Leukemia) | 0.943

Kindly review the next molecule as well.
So for Cc1c2c(nn1C)CSCc1cc(n(C)n1)CSc1cc(c3ccccc3c1)OCCCc1c(C(=O)O)n(C)c3c-2c(Cl)ccc13 [AZD5991] + CN(C)CCCOc1ccc(-c2ccc3ncc4c(c3c2)n(C2CCOCC2)c(=O)n4C)cn1 [AZD0156] (first compound max 1 µM, 7x7, partner max 1 µM) , the logged combination Emax turned out to be 0.694

----------
# Test system: PC-3_[JPC-3] (Lung Adenocarcinoma);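 further: after 72 h of two-drug dosing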
# ASSAY SUMMARY: Bliss excess, mean over the matrix (fraction); higher = more synergy
Returns the class for an entry based on its Bliss excess. Class ranges: bottom bin = under -0.03, middle bin = from -0.03 up to 0.007, top bin = 0.007 and over

COMPOUND | LABEL VALUE
C=CCn1c(=O)c2cnc(Nc3ccc(N4CCN(C)CC4)cc3)nc2n1-c1cccc(C(C)(C)O)n1 [AZD1775] + O=C(c1cc(Cc2n[nH]c(=O)c3ccccc23)ccc1F)N1CCN(C(=O)C2CC2)CC1 [Olaparib] (first compound max 1 µM, partner max 10 µM) | bottom bin
O=C(c1cc(Cc2n[nH]c(=O)c3ccccc23)ccc1F)N1CCN(C(=O)C2CC2)CC1 [Olaparib] + CC1(C)CCC(CN2CCN(c3ccc(C(=O)NS(=O)(=O)c4ccc(NCC5CCOCC5)c([N+](=O)[O-])c4)c(Oc4cnc5[nH]ccc5c4)c3)CC2)=C(c2ccc(Cl)cc2)C1 [Venetoclax] (first compound max 10 µM, 7x7, partner max 1 µM) | bottom bin
CC1(C)CCC(CN2CCN(c3ccc(C(=O)NS(=O)(=O)c4ccc(NCC5CCOCC5)c([N+](=O)[O-])c4)c(Oc4cnc5[nH]ccc5c4)c3)CC2)=C(c2ccc(Cl)cc2)C1 [Venetoclax] + C[C@@H](Nc1cc(F)cc(F)c1)c1cc(C(=O)N(C)C)cc2c(=O)cc(N3CCOCC3)oc12 [AZD8186] (first compound max 1 µM, 7x7, partner max 3 µM) | bottom bin
Cc1cc2ncnn2cc1Nc1ncc2c(n1)n(C1CCOCC1)c(=O)n2C [AZD7648] + C[C@@H]1COCCN1C2=NC(=NC(=C2)C3(CC3)[S@](=N)(=O)C)C4=C5C=CNC5=NC=C4 [AZD6738] (first compound max 10 µM, 7x7, partner max 10 µM) | top bin
N#Cc1cnc(Nc2cc(NC[C@H]3CNCCO3)c(C(F)(F)F)cn2)cn1 [SRA737] + Nc1ccn([C@@H]2O[C@H](CO)[C@@H](O)C2(F)F)c(=O)n1 [Gemcitabine] (first compound max 10 µM, 7x7, partner max 0.3 µM) | top bin
NC1(C(=O)N[C@@H](CCO)c2ccc(Cl)cc2)CCN(c2ncnc3[nH]ccc23)CC1 [Capivasertib] + COc1nnc2ccc(N3CCC(c4ccc(OCCN5CCN(C)C(=O)[C@H]5C)cc4)CC3)nn12 [AZD5153] (first compound max 10 µM, 7x7, partner max 1 µM) | middle bin

Which class does CC1(C)CCC(CN2CCN(c3ccc(C(=O)NS(=O)(=O)c4ccc(NCC5CCOCC5)c([N+](=O)[O-])c4)c(Oc4cnc5[nH]ccc5c4)c3)CC2)=C(c2ccc(Cl)cc2)C1 [Venetoclax] + C1CN(CCC1(C(=O)N[C@@H](CCO)C2=CC=C(C=C2)Cl)N)C3=NC=NC4=C3C=CN4 [Capivasertib] (first compound max 1 µM, 7x7, partner max 3 µM) fall in?
bottom bin

Which class does COc1nnc2ccc(N3CCC(c4ccc(OCCN5CCN(C)C(=O)[C@H]5C)cc4)CC3)nn12 [AZD5153] + Cn1cnc2c(F)c(Nc3ccc(Br)cc3Cl)c(C(=O)NOCCO)cc21 [Selumetinib] (first compound max 1 µM, 7x7, partner max 10 µM) fall in?
top bin

Which class does C=CCn1c(=O)c2cnc(Nc3ccc(N4CCN(C)CC4)cc3)nc2n1-c1cccc(C(C)(C)O)n1 [AZD1775] + C[C@@H]1COCCN1C2=NC(=NC(=C2)C3(CC3)[S@](=N)(=O)C)C4=C5C=CNC5=NC=C4 [AZD6738] (first compound max 1 µM, partner max 10 µM) fall in?
bottom bin

Which class does COc1nnc2ccc(N3CCC(c4ccc(OCCN5CCN(C)C(=O)[C@H]5C)cc4)CC3)nn12 [AZD5153] + C[C@@H]1COCCN1C2=NC(=NC(=C2)C3(CC3)[S@](=N)(=O)C)C4=C5C=CNC5=NC=C4 [AZD6738] (first compound max 1 µM, 7x7, partner max 10 µM) fall in?
top bin

Which class does CN(CCO)CC[C@H](CSc1ccccc1)Nc1ccc(S(=O)(=O)NC(=O)c2ccc(N3CCC([C@@H](O)c4ccccc4-c4ccc(Cl)cc4)CC3)cc2)cc1S(=O)(=O)C(F)(F)F [AZD4320] + C[C@@H](Nc1cc(F)cc(F)c1)c1cc(C(=O)N(C)C)cc2c(=O)cc(N3CCOCC3)oc12 [AZD8186] (first compound max 1 µM, 7x7, partner max 3 µM) fall in?
middle bin
